Source listed as patent US7858649B2.

Target: benzodiazepine binding site on GABAA receptors (rat cerebral cortex membranes)
Experiment: In vitro inhibition of 3H-flunitrazepam (3H-FNM) binding
Conditions: inhibition of specific binding of 3H-FNM (1 nM), cerebral cortex membranes from male Wistar rats, 40 min at 2° C.
# IC50 annotations
Report the figure in nM without appending any unit label.

* Cc1noc(-c2cn(-c3cccc(-c4ccccc4F)c3)cn2)n1 | 33
* Cc1noc(-c2cn(-c3cccc(-c4ccccc4OC(F)(F)F)c3)cn2)n1 | 17

Now for the compound whose IC50 we want.
# input Report IC50, nothing else, for this compound: Cc1noc(-c2cn(-c3cccc(-c4ccc(F)nc4)c3)cn2)n1
# output 60
